Some binders, each annotated with its measured loss of binding vs wild type.
Target: T1, hiR2-FL-L539A-T7 (human, UniProt Q6PJF5 1-856)
T1 construct: on MEF-DKO cells
T1 sequence: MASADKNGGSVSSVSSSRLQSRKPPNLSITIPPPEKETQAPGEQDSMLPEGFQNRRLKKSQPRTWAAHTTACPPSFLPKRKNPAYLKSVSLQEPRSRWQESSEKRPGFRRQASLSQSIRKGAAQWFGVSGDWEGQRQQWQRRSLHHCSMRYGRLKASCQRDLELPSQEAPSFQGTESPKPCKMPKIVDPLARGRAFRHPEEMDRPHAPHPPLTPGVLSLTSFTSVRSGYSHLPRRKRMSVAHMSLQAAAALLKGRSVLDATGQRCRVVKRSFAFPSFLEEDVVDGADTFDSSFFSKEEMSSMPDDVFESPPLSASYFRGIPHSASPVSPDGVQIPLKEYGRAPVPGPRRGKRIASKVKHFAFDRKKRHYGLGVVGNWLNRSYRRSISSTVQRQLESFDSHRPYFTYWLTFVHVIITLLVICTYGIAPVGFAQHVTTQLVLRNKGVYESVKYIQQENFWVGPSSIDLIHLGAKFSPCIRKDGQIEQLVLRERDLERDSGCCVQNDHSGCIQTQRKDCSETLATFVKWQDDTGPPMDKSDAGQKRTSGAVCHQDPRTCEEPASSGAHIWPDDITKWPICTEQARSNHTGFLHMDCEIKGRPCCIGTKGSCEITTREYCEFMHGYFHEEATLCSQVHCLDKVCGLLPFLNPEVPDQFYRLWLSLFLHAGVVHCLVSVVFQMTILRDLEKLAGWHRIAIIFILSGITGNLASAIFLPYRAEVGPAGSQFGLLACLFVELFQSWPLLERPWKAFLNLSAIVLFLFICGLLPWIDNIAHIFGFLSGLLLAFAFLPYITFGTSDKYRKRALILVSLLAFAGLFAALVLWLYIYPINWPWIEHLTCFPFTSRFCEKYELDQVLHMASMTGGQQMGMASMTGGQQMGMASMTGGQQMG
Assay: FACS, MEF-DKO cells, 3 µg/ml

Binder	loss of binding vs wild type
antibody 22 (antibody, V domains shown, mouse IgG, kappa light chain; also called clone #22; purified antibody 22) VH: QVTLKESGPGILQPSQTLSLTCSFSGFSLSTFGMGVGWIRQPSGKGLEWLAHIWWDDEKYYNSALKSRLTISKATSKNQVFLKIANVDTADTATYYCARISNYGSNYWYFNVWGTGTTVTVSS VL: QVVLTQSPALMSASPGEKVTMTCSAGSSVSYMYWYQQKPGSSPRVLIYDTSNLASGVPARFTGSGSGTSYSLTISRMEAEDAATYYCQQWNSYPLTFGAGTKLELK	≥ 95%
antibody 16 (antibody, V domains shown, mouse IgG, kappa light chain; also called clone #16; purified antibody 16) VH: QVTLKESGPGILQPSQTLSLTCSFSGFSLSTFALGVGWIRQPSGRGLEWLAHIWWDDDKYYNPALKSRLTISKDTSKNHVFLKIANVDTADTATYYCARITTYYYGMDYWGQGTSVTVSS VL: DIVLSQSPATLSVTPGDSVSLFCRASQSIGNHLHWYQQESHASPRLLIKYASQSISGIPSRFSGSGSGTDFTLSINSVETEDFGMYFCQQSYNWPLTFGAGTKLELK	≥ 30%
antibody 43 (antibody, V domains shown, mouse IgG, kappa light chain; also called clone #43; purified antibody 43) VH: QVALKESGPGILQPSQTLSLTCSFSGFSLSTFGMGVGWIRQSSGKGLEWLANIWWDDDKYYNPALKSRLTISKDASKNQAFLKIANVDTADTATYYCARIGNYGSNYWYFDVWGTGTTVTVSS VL: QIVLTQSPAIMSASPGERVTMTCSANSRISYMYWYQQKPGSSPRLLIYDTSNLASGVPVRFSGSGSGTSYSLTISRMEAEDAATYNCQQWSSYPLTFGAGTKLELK	≥ 95%
antibody 5 (antibody, V domains shown, mouse IgG, kappa light chain; also called clone #5; purified antibody 5) VH: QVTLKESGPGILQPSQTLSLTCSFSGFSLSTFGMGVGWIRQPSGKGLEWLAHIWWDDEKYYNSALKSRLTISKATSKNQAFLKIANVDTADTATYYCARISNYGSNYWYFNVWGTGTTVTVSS VL: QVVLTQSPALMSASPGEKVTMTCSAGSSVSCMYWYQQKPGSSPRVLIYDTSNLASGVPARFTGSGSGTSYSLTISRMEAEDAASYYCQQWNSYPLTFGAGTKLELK	≥ 95%
antibody 48 (antibody, V domains shown, mouse IgG, kappa light chain; also called clone #48; purified antibody 48) VH: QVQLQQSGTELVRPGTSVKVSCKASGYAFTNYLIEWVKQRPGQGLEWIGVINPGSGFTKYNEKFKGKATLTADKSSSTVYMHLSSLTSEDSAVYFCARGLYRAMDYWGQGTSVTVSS VL: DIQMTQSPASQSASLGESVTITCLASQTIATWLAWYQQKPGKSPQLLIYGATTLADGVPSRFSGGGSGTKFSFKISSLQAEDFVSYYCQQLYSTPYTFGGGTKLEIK	≥ 30%
antibody 44 (antibody, V domains shown, mouse IgG, kappa light chain; also called clone #44; purified antibody 44) VH: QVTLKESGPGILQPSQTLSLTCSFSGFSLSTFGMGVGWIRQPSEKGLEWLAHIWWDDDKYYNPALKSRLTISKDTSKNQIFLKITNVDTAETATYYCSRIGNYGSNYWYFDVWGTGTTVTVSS VL: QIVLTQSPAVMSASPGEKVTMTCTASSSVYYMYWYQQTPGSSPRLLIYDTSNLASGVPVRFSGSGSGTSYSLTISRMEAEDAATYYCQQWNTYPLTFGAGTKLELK	≥ 95%
antibody 42 (antibody, V domains shown, mouse IgG, kappa light chain; also called clone #42; purified antibody 42) VH: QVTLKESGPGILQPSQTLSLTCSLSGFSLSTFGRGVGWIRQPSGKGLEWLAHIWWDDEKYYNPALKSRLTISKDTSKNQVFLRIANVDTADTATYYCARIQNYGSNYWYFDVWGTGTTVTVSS VL: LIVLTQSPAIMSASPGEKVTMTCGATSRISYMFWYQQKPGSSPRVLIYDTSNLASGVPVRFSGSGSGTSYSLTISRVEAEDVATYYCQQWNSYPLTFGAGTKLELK	≥ 95%
antibody 3 (antibody, V domains shown, mouse IgG, kappa light chain; also called clone #3; purified antibody 3) VH: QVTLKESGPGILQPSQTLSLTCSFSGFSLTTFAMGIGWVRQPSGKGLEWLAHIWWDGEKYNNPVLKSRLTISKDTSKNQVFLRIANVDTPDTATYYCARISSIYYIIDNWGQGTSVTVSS VL: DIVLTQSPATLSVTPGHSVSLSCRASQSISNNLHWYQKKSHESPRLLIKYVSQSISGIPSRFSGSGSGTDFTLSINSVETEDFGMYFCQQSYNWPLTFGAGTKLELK	≥ 95%
antibody 34 (antibody, V domains shown, mouse IgG, kappa light chain; also called clone #34; purified antibody 34) VH: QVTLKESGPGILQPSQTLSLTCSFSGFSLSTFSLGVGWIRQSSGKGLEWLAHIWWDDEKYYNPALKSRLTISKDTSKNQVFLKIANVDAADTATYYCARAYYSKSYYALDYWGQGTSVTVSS VL: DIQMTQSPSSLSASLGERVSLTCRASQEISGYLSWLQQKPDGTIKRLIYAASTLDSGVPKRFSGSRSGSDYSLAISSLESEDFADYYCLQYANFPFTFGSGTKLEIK	≥ 95%
